Response: recorded values
# Assayed System: T1, Recombinant human CD4 (R&D Systems, Cat. 10327-CD) (human, UniProt P01730 26-390, limits assumed)
# T1 construct: Bought reagent; also called huCD4
# Test Protocol: BLI Octet, non-clonal supernatant on AMC sensor, 100 nM human CD4;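 note: hybridoma supernatants diluted 1:3, antibodies captured on AMC biosensors, association and dissociation with CD4 followed, curves smoothed and fit locally with 1:1 binding model for single-point kinetics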
Reply briefly: the number, and no unit.

>>> val("75110_07H07A (antibody, V domains shown, Tested as non-clonal AlivaMab Mouse Kappa hybridoma supernatant, captured by anti-mouse IgG Fc sensor) VH: EVQVVESGGGLVQPGGSLRLSCAASGFTFSSYWMSWVRQAPGKGLEWVANIKEEGSEKYYVDSVKGRFTISRDNAKNSLYLQMNSLRAEDTAVYYCVREGGQWLALDYWGQGTLVTVSS VL: DIQMTQSPSSVSGSVGDRVTITCRASQGISSWLAWYQQKPGKAPKLLIFGASSLQSGVPSRFSGSGSGTDFTLTISSLQPEDFATYYCQQANSFPWTFGQGTKVQIK")
0.2
>>> val("75110_12H17A (antibody, V domains shown, Tested as non-clonal AlivaMab Mouse Kappa hybridoma supernatant, captured by anti-mouse IgG Fc sensor) VH: EVQLVESGGGLVQPGGSLRLSCAASGFTFSDYWMSWVRQAPGKGLEWVANIKEDGNEKYYVDSVKGRFTISRDNAKNSLFLQMNSLRAEDTAVYYCAREGGQWLALDYWGQGALVTVSS VL: DIQMTQSPSSVSASVGDRVTITCRASQGISSWLAWYQQKPGKAPKFLISGASSLQSGVPSRFTGSGSGTDFTLTISSLQPEDFATYYCQQANSFPWTFGQGTKVEIK")
0.09
>>> val("75110_04P08A (antibody, V domains shown, Tested as non-clonal AlivaMab Mouse Kappa hybridoma supernatant, captured by anti-mouse IgG Fc sensor) VH: QVQLQQWGAGLLKPSETLSLTCAVYGGSLSGYYWSWIRQSPGKGLEWIGEINQSGSTNYNPSLKSRVTISVDTSKDQFSLRLTSVTAADTAVYYCTRVLNWFDPWGRGTLVTVSS VL: DIQMTQSPSSVSASVGDRVTLTCRASQDISNWLAWYQQKPGKAPKLLIYAASSLQSGVPSRFSGSGSGTDFTLTISSLQTEDFATYYCQQANSFPYTFGQGTKLEIK")
0.17

Assign Response to the following record: 75110_03D16A (antibody, V domains shown, Tested as non-clonal AlivaMab Mouse Kappa hybridoma supernatant, captured by anti-mouse IgG Fc sensor) VH: EVQLVESGGGLVQPGGSLRLSCAASGFTFSSYWMSWVRQAPGKGLEWVANINQDGGEKYYVDSVKGRFTISRDNAKNSLYLQMNSLRAEDTAVYYCVREGGQWLALDYWGQGTLVTVSS VL: DIQMTQSPSSVSASVGDRVTITCRASQGISSWLTWYQQKPGKAPKFLIYAASSLQSGVPSRFSGSGFGTDFTLTISSLQPEDFATYYCQQANSFPWTFGQGTKVEIK
0.25

Assign Response to the following record: 75110_06D16A (antibody, V domains shown, Tested as non-clonal AlivaMab Mouse Kappa hybridoma supernatant, captured by anti-mouse IgG Fc sensor) VH: QVQLQQWGAGLLKPSETLSLTCAVYGGSFSGYYWSWIRQPPGKGLEWIGEINHSGSTNYNPSLKSRVTISVVTSKNQFSLKLSSVTAADTAVYYCARVLNWFDPWGQGTLVTVSS VL: DIQMTQSPSSVSASVGDRVTITCRASQDIADWLAWYQQKPGKAPKLLIYAASSFQSGVPSRFSGSGSGTDFTLTISSLQPEDFATYFCQQANSFPYTFGQGTKLEIK
0.09

Assign Response to the following record: 75110_14P05A (antibody, V domains shown, Tested as non-clonal AlivaMab Mouse Kappa hybridoma supernatant, captured by anti-mouse IgG Fc sensor) VH: EVQLVESGGGLVQPGGSLRLSCAASGFTFSSYDVHWVRQATGKGLEWVSTIGTAGDTYYPGSVKGRFTISRENAKNSLYLQMNSLRAGDTAVYYCARGGFYYYGMDVWGQGTTVTVSS VL: EIVLTQSPGTLSLSPGERATLSCRASQSVSSSYLAWYQQKPGQTPRLLIYGASSRATGIPDRFSGSGSGTDFTLTISRLEPEDFAVFYCQQSGSSPFTFGPGTKVDVK
0.149

Assign Response to the following record: 75110_11D03A (antibody, V domains shown, Tested as non-clonal AlivaMab Mouse Kappa hybridoma supernatant, captured by anti-mouse IgG Fc sensor) VH: EVQLVESGGGLVQPGGSLRLSCAASGFTFSSYWMSWVRQAPGKGLEWVANINQDGNEKYYVDSVKGRFTISRDNAKNSLFLQMNSLRAEDTAVYYCAREGGQWLALDYWGQGALVTVSS VL: DIQMTQSPSSVSASVGDRVTITCRASQGISSWLAWYQQKPGKAPKFLISGASSLQSGVPSRFSGSGSGTDFTLTISSLQPEDFATYYCQQANSFPWTFGQGTKVEIK
0.177

Assign Response to the following record: 75110_14N19A (antibody, V domains shown, Tested as non-clonal AlivaMab Mouse Kappa hybridoma supernatant, captured by anti-mouse IgG Fc sensor) VH: QVQLQESGPGLVKPSETLSLTCTVSGGSISRYYWSWIRQPAGKGLEWIGRICTSENPNYNPALKSRVTMSVDTSKNQFSLKLSSVTAADTAVYYCARELERLNYYGMDVWGQGTTVTVSS VL: DIQMTQFPSSLSASVGDRVTITCQASQDISNYLNWYQQKPGKAPKLLIYDASNLESGVPSRFSGRGSGTDFTFTISSLQPEDFATFYCQQYDTLPITFGQGTRLEIK
0.105

Assign Response to the following record: 75110_01A06A (antibody, V domains shown, Tested as non-clonal AlivaMab Mouse Kappa hybridoma supernatant, captured by anti-mouse IgG Fc sensor) VH: EVQLVESGGGLVQPGGSLRLSCAASGFTFSSYWMSWVRQAPGKGLEWVANINEDGNEKYYVDSVKGRLTISRDNAKNSLYLQMNSLRAEDTAVYFCAREGGQWLSLDYWGQGALVTVSS VL: DIQMTQSPSSVSASVGDRVSITCRASQGISSWLAWYQQKPGKAPKILIYGASSLQSGVPSRFSGSGSGTDFTLTISSLQPEDFATYYCQQANSFPWTFGQGTKVEIK
0.28

Assign Response to the following record: 75110_07B16A (antibody, V domains shown, Tested as non-clonal AlivaMab Mouse Kappa hybridoma supernatant, captured by anti-mouse IgG Fc sensor) VH: QVQLQQWGAGLLKPSETLSLTCAVYGGSFSGYYWSWIRQSPGKGLEWIGEINQSGSTNYNPSLKSRVTISVDTSKDQFSLKLSSVTAADTAVYYCARVINWFDSWGQGSLVTVSS VL: DIQMTQSPSSVSASVGDRVTITCRASQGISSWLAWYQQKPGKAPKLLIYDASSFQSGVPSRFSGSGSGTDFTLTISSLQTDDFATYYCQQANSFPYTFGQGTKLEIK
0.21
